Reference source for all entries: ChEMBL document CHEMBL4265871

- protocol-notes: Hemolytic activity in mouse erythrocytes assessed as hemolysis level at 7.8 ug/ml incubated for 1 hr at 37 degC
- Assay type: ADME, cell-based, Erythrocyte
- experimental-conditions: read-out: Activity
property-label: hemolysis at 1 h, 7.8 ug/ml (%)
Numbers only here, please. The scale is %.

Here's what some known entries look like.
{"compound": "C[C@@H]1[C@H](O)[C@@H](C)/C=C/C=C/C=C/C=C/C=C/C=C/C=C/[C@H](O[C@@H]2O[C@H](C)[C@@H](O)[C@H](N)[C@@H]2O)C[C@@H]2O[C@](O)(C[C@@H](O)C[C@@H](O)[C@H](O)CC[C@@H](O)C[C@@H](O)CC(=O)O[C@H]1C)C[C@H](O)[C@H]2C(=O)O", "reading-unit": "%", "result-value": 3.7}
{"compound": "CCCCCCC(O)(Cn1cncn1)c1ccc(Cl)cc1Cl (centres undefined)", "reading-unit": "%", "result-value": 1.6}

CCCCCCC(O)(Cn1cncn1)c1ccc(F)cc1 (centres undefined) yielded hemolysis at 1 h, 7.8 ug/ml of 5.2

CCCCCCC(O)(Cn1cncn1)c1ccccc1F (centres undefined) yielded hemolysis at 1 h, 7.8 ug/ml of 0

----------
- protocol-notes: Selectivity index, ratio of […] for toxicity in human BEAS2B cells to MIC50 for antifungal activity against Aspergillus flavus ATCC MYA-3631
- Assay type: cell-based
- experimental-conditions: BEAS-2B cells, read-out: Selectivity Index
property-label: selectivity ratio
Hey, just send me the number, nothing else.

Here's what some known entries look like.
{"compound": "CCCCCC(O)(Cn1cncn1)c1ccc(Cl)cc1 (stereo not drawn)", "property-label": "selectivity ratio", "result-value": 1}
{"compound": "CCCCCC(O)(Cn1cncn1)c1ccccc1Cl (stereo not drawn)", "property-label": "selectivity ratio", "result-value": 1}

CCCCCCC(O)(Cn1cncn1)c1ccc(Cl)cc1Cl (stereo not drawn) yielded selectivity ratio of 7

----------
- System: BEAS-2B
- protocol-notes: Toxicity in human BEAS2B cells assessed as cell viability at 15.6 ug/ml incubated for 24 hrs by resazurin dye based assay
Listed next: entries and their corresponding viability.

CCCC(O)(Cn1cncn1)c1ccc(Cl)cc1Cl (stereo not given) yielded viability of > 85%

CCCCCC(O)(Cn1cncn1)c1ccc(Cl)cc1Cl (stereo not given) yielded viability of > 85%

C[C@@H]1[C@H](O)[C@@H](C)/C=C/C=C/C=C/C=C/C=C/C=C/C=C/[C@H](O[C@@H]2O[C@H](C)[C@@H](O)[C@H](N)[C@@H]2O)C[C@@H]2O[C@](O)(C[C@@H](O)C[C@@H](O)[C@H](O)CC[C@@H](O)C[C@@H](O)CC(=O)O[C@H]1C)C[C@H](O)[C@H]2C(=O)O yielded viability of 30%

CCCCC(O)(Cn1cncn1)c1ccc(Cl)cc1Cl (stereo not given) yielded viability of > 85%

CCCCCCC(O)(Cn1cncn1)c1ccc(Cl)cc1Cl (stereo not given) yielded viability of > 85%

----------
- protocol-notes: Selectivity index, ratio of EC50 for toxicity in human BEAS2B cells to MIC for antifungal activity against Candida parapsilosis ATCC 22019
- experimental-conditions: BEAS-2B cells
property-label: selectivity ratio
Hey, just send me the number, nothing else.

Here's what some known entries look like.
{"molecule": "CCCCCC(O)(Cn1cncn1)c1ccc(F)cc1 (stereo not drawn)", "result-value": 69}
{"molecule": "CCCCCC(O)(Cn1cncn1)c1ccc(Cl)cc1 (stereo not drawn)", "result-value": 522}

In the following, a different molecule is considered.
CCCCCCC(O)(Cn1cncn1)c1ccc(F)cc1F (stereo not drawn) yielded selectivity ratio of 1040
